Catalogue of IC50 values
- Study Target: glucose-6-phosphate-dehydrogenase (Saccharomyces cerevisiae, UniProt P11412)
- Construct: purchased Boehringer Mannheim
- Sequence (P11412 1-505): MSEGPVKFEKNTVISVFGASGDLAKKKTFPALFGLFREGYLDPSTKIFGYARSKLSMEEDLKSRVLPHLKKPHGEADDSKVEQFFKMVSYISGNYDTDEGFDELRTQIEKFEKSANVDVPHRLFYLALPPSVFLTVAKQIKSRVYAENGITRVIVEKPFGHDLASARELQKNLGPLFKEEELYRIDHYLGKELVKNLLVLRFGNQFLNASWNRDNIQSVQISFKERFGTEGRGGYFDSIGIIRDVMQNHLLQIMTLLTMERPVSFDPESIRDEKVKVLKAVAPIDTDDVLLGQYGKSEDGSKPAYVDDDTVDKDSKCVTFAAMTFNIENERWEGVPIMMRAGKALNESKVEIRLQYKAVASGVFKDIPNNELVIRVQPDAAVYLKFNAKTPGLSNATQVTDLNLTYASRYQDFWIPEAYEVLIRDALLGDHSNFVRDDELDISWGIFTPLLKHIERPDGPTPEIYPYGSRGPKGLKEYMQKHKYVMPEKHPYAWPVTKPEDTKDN
- Experiment Description: Inhibition of the glucose-6-phosphate-dehydrogenase
- Type: biochemical
- Applied Conditions: 37° C., 60 minutes before substrate; 366 nm; read-out: G6PDH-inhibition ED50, Inhibition of Incubation (converted)
Readout Type: IC50 (µM)

> print(dat)
                                   molecule                              study.target  comparator  assay.value
1             COc1ccc(C(=O)C(F)(F)F)c(OC)c1  glucose-6-phosphate-dehydrogenase (Saccharomyces cerevisiae, UniProt P11412)           >          214
2             CCc1c(O)ccc(C(=O)C(F)(F)F)c1O  glucose-6-phosphate-dehydrogenase (Saccharomyces cerevisiae, UniProt P11412)           =         85.4
3             CCc1cc(C(=O)C(F)(F)F)c(O)cc1O  glucose-6-phosphate-dehydrogenase (Saccharomyces cerevisiae, UniProt P11412)           =          128
4  O=C(c1ccc(O)cc1O)C(F)(F)F [Compound A, 2,4-Dihydroxy-trifluoroacetophenone]  glucose-6-phosphate-dehydrogenase (Saccharomyces cerevisiae, UniProt P11412)           =          160

* * *

- Study Target: glucose-6-phosphate-dehydrogenase (Saccharomyces cerevisiae)
- Construct: purchased Boehringer Mannheim
- Experiment Description: Inhibition of the glucose-6-phosphate-dehydrogenase
- Assay type: biochemical
- Applied Conditions: 25° C., 5 minutes before substrate; 366 nm; read-out: G6PDH-inhibition ED50, Immediate Inhibition (converted)
Readout Type: IC50 (µM)

> print(dat)
                                   compound  comparator  assay.value
1  CCc1cc(C(=O)C(F)(F)F)c(O)cc1O [Compound B]           =          147
2  O=C(c1ccc(O)cc1O)C(F)(F)F [Compound A, 2,4-Dihydroxy-trifluoroacetophenone]           >          243
3         CCc1c(O)ccc(C(=O)C(F)(F)F)c1O [C]           =          160
4  COc1ccc(C(=O)C(F)(F)F)c(OC)c1 [D, 2,4-Dimethoxy-trifluoroacetophenone]           >          214

* * *

- Experiment Description: Acute toxicity, LD50 in the mouse
- Applied Conditions: in vivo, ip, death within 14 days
Readout Type: LD50 at 336 h (mg/kg)

> print(dat)
                                   compound  assay.value
1             CCc1cc(C(=O)C(F)(F)F)c(O)cc1O           88
2  O=C(c1ccc(O)cc1O)C(F)(F)F [Compound A, 2,4-Dihydroxy-trifluoroacetophenone]          105
